Where do these numbers come from? They come from patent US11566007B2.

Molecular target: KRAS Q61H (Homo sapiens (Human), UniProt P01116+P62937, Q61H)
Sequence (P01116-2 other isoform, or with tags, fused parts or gaps Q61H): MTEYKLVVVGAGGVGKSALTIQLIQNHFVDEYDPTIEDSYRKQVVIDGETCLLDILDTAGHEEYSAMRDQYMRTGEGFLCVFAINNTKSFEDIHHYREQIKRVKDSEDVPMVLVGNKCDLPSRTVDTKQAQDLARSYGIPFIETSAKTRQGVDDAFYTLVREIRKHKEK
Sequence (P62937 whole entry): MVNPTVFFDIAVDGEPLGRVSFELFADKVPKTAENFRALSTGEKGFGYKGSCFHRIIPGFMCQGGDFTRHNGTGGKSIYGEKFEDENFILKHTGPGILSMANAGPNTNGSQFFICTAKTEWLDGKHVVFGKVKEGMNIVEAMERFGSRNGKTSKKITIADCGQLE
Assay: Ras-Raf (BRAF RBD) disruption / FRET / MOA assay, KRAS Q61H
Assay type: biochemical
Details: Ras-Raf disruption/FRET/MOA assay; class symbols; read-out: KRAS Q61H FRET data IC50
The entries below are paired with their reported IC50.
Readout name: IC50

INSERT INTO results (compound, readout_name, measurement) VALUES
  ('CCn1c(-c2cccnc2[C@H](C)OC)c2c3cc(ccc31)-c1csc(n1)C[C@H](NC(=O)[C@H](C(C)C)N(C)C(=O)N(C)C1CN(C(=O)/C=C/CN(C)C)C1)C(=O)N1CCC[C@H](N1)C(=O)OCC(C)(C)C2 (atropisomer, axis not shown) [Example A361]', 'IC50', '100 to 1000 nM'),
  ('CCn1c(-c2cccnc2[C@H](C)OC)c2c3cc(ccc31)N1CCO[C@@H](C[C@H](NC(=O)[C@H](C(C)C)N(C)C(=O)C3(F)CCN(C(=O)/C=C/CN(C)C)CC3)C(=O)N3CCC[C@H](N3)C(=O)OCC(C)(C)C2)C1 (atropisomer, axis not shown) [Example A645]', 'IC50', '1000 to 10000 nM'),
  ('C=CC(=O)N(C)CCN1CCN(C(=O)N(C)[C@H](C(=O)N[C@H]2Cc3nc(cs3)-c3ccc4c(c3)c(c(-c3cccnc3[C@H](C)OC)n4CC)CC(C)(C)COC(=O)[C@@H]3CCCN(N3)C2=O)C(C)C)CC1 (atropisomer, axis not shown) [Example A630]', 'IC50', '100 to 1000 nM'),
  ('C=CC(=O)N1CCO[C@@H]2CCN(C(=O)N(C)[C@H](C(=O)N[C@H]3Cc4nc(cs4)-c4ccc5c(c4)c(c(-c4cccnc4[C@H](C)OC)n5CC)CC(C)(C)COC(=O)[C@@H]4CCCN(N4)C3=O)C(C)C)CC21 (stereo partly drawn) [Example A596]', 'IC50', '10 to 100 nM'),
  ('CCn1c(-c2cccnc2[C@H](C)OC)c2c3cc(ccc31)-c1csc(n1)C[C@H](NC(=O)[C@H](C(C)C)N(C)C(=O)N1C[C@H]3CN(C(=O)C#CC(C)(C)N(C)C)CC[C@H]31)C(=O)N1CCC[C@H](N1)C(=O)OCC(C)(C)C2 (atropisomer, axis not shown) [Example A624]', 'IC50', '100 to 1000 nM'),
  ('C=CC(=O)N1CC[C@H](C(=O)N(C)[C@H](C(=O)N[C@H]2Cc3cc(O)cc(c3)-c3ccc4c(c3)c(c(-c3cnn5c3[C@@H](OC)CCC5)n4CC)CC(C)(C)COC(=O)[C@@H]3CCCN(N3)C2=O)C(C)C)C1 [Example A333]', 'IC50', '10 to 100 nM'),
  ('C=CC(=O)N(C)C[C@H]1CCN1C(=O)N(C)[C@H](C(=O)N[C@H]1Cc2nc(cs2)-c2ccc3c(c2)c(c(-c2cccnc2[C@H](C)OC)n3CC)CC(C)(C)COC(=O)[C@@H]2CCCN(N2)C1=O)C(C)C (atropisomer, axis not shown) [Example A369]', 'IC50', '100 to 1000 nM'),
  ('C=C(OC)C(=O)N1CC(N(C)C(=O)N(C)[C@H](C(=O)N[C@H]2Cc3nc(cs3)-c3ccc4c(c3)c(c(-c3cccnc3[C@H](C)OC)n4CC)CC(C)(C)COC(=O)[C@@H]3CCCN(N3)C2=O)C(C)C)C1 (atropisomer, axis not shown) [Example A713]', 'IC50', '100 to 1000 nM'),
  ('CCn1c(-c2cccnc2[C@H](C)OC)c2c3cc(ccc31)-c1csc(n1)C[C@H](NC(=O)[C@H](C(C)C)N(C)C(=O)N1CCC13CN(C(=O)/C=C/CN1CCOCC1)C3)C(=O)N1CCC[C@H](N1)C(=O)OCC(C)(C)C2 (atropisomer, axis not shown) [Example A611]', 'IC50', '10 to 100 nM'),
  ('C=CC(=O)Nc1ncc(C(=O)N(C)[C@H](C(=O)N[C@H]2Cc3cccc(c3)-c3ccc4c(c3)c(c(-c3cccnc3[C@H](C)OC)n4CC)CC(C)(C)COC(=O)[C@@H]3CCCN(N3)C2=O)C(C)C)n1C (atropisomer, axis not shown) [Example A475]', 'IC50', '100 to 1000 nM'),
  ('C=CC(=O)N1CC[C@H](C(=O)N(C)[C@H](C(=O)N[C@H]2Cc3cc(O)cc(c3)-c3cc4c(c(-c5ccccc5CCOC)n(CC)c4cn3)CC(C)(C)COC(=O)[C@@H]3CCCN(N3)C2=O)C(C)C)C1 [Example A102]', 'IC50', '1000 to 10000 nM'),
  ('CCn1c(-c2cccnc2[C@H](C)OC)c2c3cc(ccc31)-c1csc(n1)C[C@H](NC(=O)[C@H](C(C)C)N(C)C(=O)N1CCN(C(=O)/C=C/CN(C)C)C3(CC3)C1)C(=O)N1CCC[C@H](N1)C(=O)OCC(C)(C)C2 (atropisomer, axis not shown) [Example A701]', 'IC50', '10 to 100 nM'),
  ('C=CC(=O)N1CCN(C(=O)N(C)[C@H](C(=O)N[C@H]2Cc3nc(cs3)-c3ccc4c(c3)c(c(-c3cccnc3[C@H](C)OC)n4CC)CC(C)(C)COC(=O)[C@@H]3CCCN(N3)C2=O)C(C)C)[C@H]2C[C@H]21 (atropisomer, axis not shown) [Example A737]', 'IC50', '10 to 100 nM'),
  ('C=CC(=O)C1CC[C@H](C(=O)N(C)[C@H](C(=O)N[C@H]2Cc3cc(O)cc(c3)-c3ccc4c(c3)c(c(-c3cnn(C)c3[C@H](C)OC)n4CC)CC(C)(C)COC(=O)[C@@H]3CCCN(N3)C2=O)C(C)C)C1 (stereo partly drawn) [Example A166]', 'IC50', '100 to 1000 nM'),
  ('CO[C@@H](C)c1ncccc1-c1c2c3cc(ccc3n1CC(F)(F)F)N1CCO[C@@H](C[C@H](NC(=O)[C@@H](COC3CN(C(=O)C#CC(C)(C)N(C)C)C3)C(C)C)C(=O)N3CCC[C@H](N3)C(=O)OCC(C)(C)C2)C1 (atropisomer, axis not shown) [Example A375]', 'IC50', '> 10000 nM');

###

Tested on: NCI-H358 (K-Ras G12C)
Assay: CellTiter-Glo cell viability assay, NCI-H358
Format: cell-based, human
Conditions: Homo sapiens, NCI-H358, 120 h, NCI-H358, 5-day treatment; class symbols; read-out: Additional H358 Cell Viability assay data (K-Ras G12C, IC50)
Description: Note—The following protocol describes a procedure for monitoring cell viability of K-Ras mutant cancer cell lines in response to a compound of the invention. Other RAS isoforms may be employed, though the number of cells to be seeded will vary based on cell line used. Test compounds (132.5 nL) were directly dispensed into the assay plates containing cells. […] Luminescence was measured using the PerkinElmer Enspire. […]
pIC50: −log10 of the molar value.
Readout name: pIC50

INSERT INTO assay_data (molecule, measurement_target, readout_name, measurement) VALUES
  ('C=C(C)C(=O)N1CC2(CCN(C(=O)N(C)[C@H](C(=O)N[C@H]3Cc4nc(cs4)-c4ccc5c(c4)c(c(-c4cccnc4[C@H](C)OC)n5CC)CC(C)(C)COC(=O)[C@@H]4CCCN(N4)C3=O)C(C)C)CC2)C1 (atropisomer, axis not shown)', 'NCI-H358 (K-Ras G12C)', 'pIC50', '7.00 to 8.00'),
  ('C=CC(=O)N1CC[C@H](C(=O)N(C)[C@H](C(=O)N[C@H]2Cc3cc(O)cc(c3)-c3ccc4c(c3)c(c(-c3csc(N(C)C)n3)n4CC)CC(C)(C)COC(=O)[C@@H]3CCCN(N3)C2=O)C(C)C)C1', 'NCI-H358 (K-Ras G12C)', 'pIC50', '6.00 to 7.00');

###

The entries below are paired with their reported pIC50.
Molecular target: KRAS G13D (Homo sapiens (Human), UniProt P01116+P62937, G13D)
Sequence (P01116-2 other isoform, or with tags, fused parts or gaps G13D, one chain of several): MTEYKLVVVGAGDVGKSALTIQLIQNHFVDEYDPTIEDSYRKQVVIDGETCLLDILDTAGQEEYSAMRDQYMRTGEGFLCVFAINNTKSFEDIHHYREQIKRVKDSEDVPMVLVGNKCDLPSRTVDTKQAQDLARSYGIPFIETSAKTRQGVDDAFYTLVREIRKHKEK
Test: Ras-Raf (BRAF RBD) disruption / FRET / MOA assay, KRAS G13D
Format: biochemical
Conditions: read-out: IC50* KRAS G13D FRET data
pIC50: −log10 of the molar value.
Readout name: pIC50

INSERT INTO measurements (compound, readout_name, measurement) VALUES
  ('C=CC(=O)N1CC[C@H](C(=O)N(C)[C@H](C(=O)N[C@H]2Cc3nc(n(C)n3)-c3ccc4c(c3)c(c(-c3cccnc3[C@H](C)OC)n4CC)CC(C)(C)COC(=O)[C@@H]3CCCN(N3)C2=O)C(C)C)C1 (atropisomer, axis not shown) [Example A314]', 'pIC50', '5.00 to 6.00'),
  ('C=CC(=O)N1CC[C@H](C(=O)N(C)[C@H](C(=O)N[C@H]2CN3CCC=C(C3)c3ccc4c(c3)c(c(-c3cccnc3[C@H](C)OC)n4CC)CC(C)(C)COC(=O)[C@@H]3CCCN(N3)C2=O)C(C)C)C1 (atropisomer, axis not shown) [Example A716]', 'pIC50', '< 5.00');
